The values you see were collected from ChEMBL document CHEMBL4265965.

Tested on: NCI-H1975
Experiment: Antiproliferative activity against human NCI-H1975 cells assessed as inhibition of cell proliferation at 6 uM after 72 hrs by MTT assay relative to control
Format: functional
Details: NCI-H1975, 72 h
Below, each entry is listed with its recorded inhibition at 6 µM.
A number alone suffices; assume %.

Look at this compound and give its reported inhibition at 6 µM. CCOc1ccc(C(=O)C(Cl)Cl)cc1
89

Next:
Look at this compound and give its reported inhibition at 6 µM. COc1ccc(C(=O)C(Cl)Cl)cc1
95.8

Please give the result for CCc1cccc(C(=O)C(Cl)Cl)c1 too.
85.9

Please give the result for Cc1ccccc1C(=O)C(Cl)Cl too.
69.8

###

System: NCI-H1975
Experiment: Antiproliferative activity against human NCI-H1975 cells assessed as inhibition of cell proliferation at 6 uM after 72 hrs by MTT assay relative to control
Assay type: functional
Details: NCI-H1975, 72 h
Below, each entry is listed with its recorded inhibition at 6 µM.
A number alone suffices; assume %.

What is its inhibition at 6 µM for NCI-H1975? Entry: O=C(c1cccc(Br)c1)C(Cl)Cl
86.2

Please give the result for O=C(c1ccc(C(F)(F)F)cc1)C(Cl)Cl too.
91.6

Next:
What is its inhibition at 6 µM for NCI-H1975? Entry: O=C(c1cccnc1)C(Cl)Cl
9.3

Please give the result for O=C(c1ccccc1)C(Cl)Cl too.
54.3

Please give the result for O=C(c1cccc([N+](=O)[O-])c1)C(Cl)Cl too.
98.5

Please give the result for O=C(c1ccc(-c2ccccc2)cc1)C(Cl)Cl too.
90.3

Please give the result for O=C(c1ccc(OCCCCBr)c([N+](=O)[O-])c1)C(Cl)Cl too.
54.7

Please give the result for CCCCCCOc1ccc(C(=O)C(Cl)Cl)cc1[N+](=O)[O-] too.
51.7

Please give the result for Cc1ccc(C(=O)C(Cl)Cl)cc1 too.
83.1

Please give the result for CCCc1ccc(C(=O)C(Cl)Cl)cc1[N+](=O)[O-] too.
69.5

###

Tested on: NCI-H1975
Test: Antiproliferative activity against human NCI-H1975 cells assessed as inhibition of cell proliferation at 6 uM after 72 hrs by MTT assay relative to control
Assay type: functional
Conditions: NCI-H1975, 72 h
Tick True if inhibition at 6 µM is 90% or greater. Tick False if inhibition at 6 µM is less than 90%.

Record Cc1cccc(C(=O)C(Cl)Cl)c1 ; criterion: inhibition at 6 µM no lower than 90%. Met?
True

Please give the result for CCCCCOc1ccc(C(=O)C(Cl)Cl)cc1[N+](=O)[O-] too.
True

Please give the result for COc1ccc(C(=O)C(Cl)Cl)cc1Cl too.
True

Please give the result for CCCCc1ccc(C(=O)C(Cl)Cl)cc1[N+](=O)[O-] too.
False

Next:
Record O=C(c1ccc(Cl)c([N+](=O)[O-])c1)C(Cl)Cl ; criterion: inhibition at 6 µM no lower than 90%. Met?
True

Please give the result for O=C(c1ccncc1)C(Cl)Cl too.
False

Please give the result for CC(C)c1ccc(C(=O)CCl)cc1[N+](=O)[O-] too.
False

###

Below, each entry is listed with its recorded inhibition at 6 µM.
Tested on: NCI-H1975
Test: Antiproliferative activity against human NCI-H1975 cells assessed as inhibition of cell proliferation at 6 uM after 72 hrs by MTT assay relative to control
Type: functional
Conditions: NCI-H1975, 72 h
A number alone suffices; assume %.

Look at this compound and give its reported inhibition at 6 µM. O=C(c1ccccc1I)C(Cl)Cl
90.8

Please give the result for O=C(c1ccc(I)cc1)C(Cl)Cl too.
91.4

Please give the result for CCCCOc1ccc(C(=O)C(Cl)Cl)cc1 too.
92

Please give the result for COc1ccc(C(=O)C(Cl)Cl)cc1[N+](=O)[O-] too.
89.4

Next:
Look at this compound and give its reported inhibition at 6 µM. O=C(c1ccc(F)cc1)C(Cl)Cl
92.1
